Target: ~100 representative kinases (Homo sapiens)
Construct: Recombinant protein kinase domains with a concentration of 2 μM
Assay: DSF 100 kinase selectivity screen;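 also: compound tested at 20 µM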
Format: binding
Details: Protein ULK3; DSF; average of three replicates
observation type: log10 dTm (log10 of the value in K)
Lab note - dTm converted to log10 from values in K.

Observe how each entry below is paired with its result.
Request body: readout log10 dTm, system ~100 representative kinases (Homo sapiens), query Cc1cc(F)ccc1NC(=O)C1(C(=O)Nc2cccc(-c3c[nH]c4ncnc(N5CCOCC5)c34)c2)CC1 [Compound 24] . Return the value. 0.88

Which log10 dTm is reported with ~100 representative kinases (Homo sapiens) for this entry: O=C(Nc1cccc(-c2c[nH]c3ncnc(N4CCOCC4)c23)c1)C1(C(=O)Nc2ccc(F)c(Cl)c2)CC1 [Compound 18] ? 0.98

Query log10 dTm on ~100 representative kinases (Homo sapiens) for O=C(Nc1cccc(-c2c[nH]c3ncnc(N4CCOCC4)c23)c1)C1(C(=O)Nc2ccc(F)c(Br)c2)CC1 [Compound 19] 0.75

More entries:
Please state recorded log10 dTm (tested on ~100 representative kinases (Homo sapiens)) of Cc1ccc(C(=O)Nc2ccc(CN3CCN(C)CC3)c(C(F)(F)F)c2)cc1C#Cc1cnc2[nH]ncc2c1 [GZD-824, reference compound] 0.97

State its log10 dTm on ~100 representative kinases (Homo sapiens): Cc1ccc(-n2nc(C(C)(C)C)cc2NC(=O)Nc2cccc(-c3c[nH]c4nc(Cl)nc(N5CCOCC5)c34)c2)cc1 [Compound 30] -0.57

Find log10 dTm (~100 representative kinases (Homo sapiens)) for the entry O=C(Nc1cccc(-c2c[nH]c3ncnc(N4CCOCC4)c23)c1)c1cccn(-c2ccc(F)cc2)c1=O [Compound 4] 0.94

Query log10 dTm on ~100 representative kinases (Homo sapiens) for Cc1ccc(NC(=O)C2(C(=O)Nc3cccc(-c4c[nH]c5ncnc(N6CCOCC6)c45)c3)CC2)cc1 [Compound 14] 0.89

* * *

Molecular target: ~100 representative kinases (Homo sapiens)
Construct: Recombinant protein kinase domains with a concentration of 2 μM
Sequence (Q09013 1-629): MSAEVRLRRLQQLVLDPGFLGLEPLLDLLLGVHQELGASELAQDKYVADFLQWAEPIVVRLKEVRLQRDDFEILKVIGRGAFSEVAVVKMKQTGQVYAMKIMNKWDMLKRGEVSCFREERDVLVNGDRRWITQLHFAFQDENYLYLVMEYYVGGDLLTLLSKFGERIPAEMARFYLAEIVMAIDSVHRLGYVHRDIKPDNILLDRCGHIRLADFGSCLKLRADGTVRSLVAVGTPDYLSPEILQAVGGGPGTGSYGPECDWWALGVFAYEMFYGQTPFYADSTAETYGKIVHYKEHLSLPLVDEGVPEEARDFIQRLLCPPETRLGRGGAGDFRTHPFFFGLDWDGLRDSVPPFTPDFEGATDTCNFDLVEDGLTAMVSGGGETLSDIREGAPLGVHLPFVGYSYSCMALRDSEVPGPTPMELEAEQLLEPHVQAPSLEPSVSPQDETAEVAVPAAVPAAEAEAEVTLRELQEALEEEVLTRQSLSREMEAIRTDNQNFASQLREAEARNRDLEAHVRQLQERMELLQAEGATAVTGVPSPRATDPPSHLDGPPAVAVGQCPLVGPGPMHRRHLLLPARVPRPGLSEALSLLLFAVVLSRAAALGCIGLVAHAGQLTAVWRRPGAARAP
Assay: DSF 100 kinase selectivity screen;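 also: compound tested at 20 µM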
Format: binding
Details: Protein DMPK1; average of three replicates
As shown below, each of these molecules has a reported dTm value.
Please answer in the form of a number followed by its unit of measurement.

These solved cases illustrate the format of a correct answer.
Given the entry Cc1cc(NC(=O)C2(C(=O)Nc3ccc(F)cc3)CC2)cc(-c2c[nH]c3ncnc(N4CCOCC4)c23)c1 , report its measured dTm. 1.12 K

Please look up its dTm: O=C(Nc1cccc(-c2c[nH]c3ncnc(N4CCOCC4)c23)c1)C1(C(=O)Nc2ccc(F)c(Br)c2F)CC1 -0.0242 K

Next molecule, please.
So what does the record say about dTm for COc1cc(C(=O)N2CCOCC2)c(F)cc1Nc1nc(N(C)C)c2c(Cl)c[nH]c2n1 ? 0.30 K

* * *

Biological target: ~100 representative kinases (Homo sapiens)
Construct: Recombinant protein kinase domains with a concentration of 2 μM
Assay: DSF 100 kinase selectivity screen;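 also: compound tested at 20 µM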
Assay type: binding
Conditions: Protein TOPK; DSF; average of three replicates
# reported dTm; entries follow
Quick reminder: number only, in K, skip the unit.

Below, 5 molecules whose answers are already recorded.
Which value of dTm has been reported for Cc1ccc(C(=O)Nc2ccc(CN3CCN(C)CC3)c(C(F)(F)F)c2)cc1C#Cc1cnc2[nH]ncc2c1 [GZD-824, reference compound] in the records? 4.33

Would you kindly share the measured dTm for CCNc1nc(Nc2cc(F)c(C(=O)N3CCOCC3)cc2OC)ncc1C(F)(F)F ? 0.03

What dTm value was documented for this molecule, C[C@@H]1CN(c2cc(-c3n[nH]c4ccc(OC5(C)CC5)cc34)ncn2)C[C@H](C)O1 ? 0.0743

Query (molecule): Cc1ccc(C(=O)Nc2ccc(CN3CCN(C)CC3)c(C(F)(F)F)c2)cc1C#Cc1cnc2cccnn12 [Ponatinib, reference compound] ; field requested: dTm 2.32

Look up dTm for this molecule: Cn1cc(-c2c[nH]c3ncnc(N4CCOCC4)c23)cc1C#N 0.66

Continuing:
Value lookup for dTm; key = Cc1ccc(C(=O)Nc2ccc(CN3CCN(C)CC3)c(C(F)(F)F)c2)cc1C#Cc1c[nH]c2ncnc(N3CCOCC3)c12 2.13

* * *

Biological target: ~100 representative kinases (Homo sapiens, UniProt Q96NX5)
Construct: Recombinant protein kinase domains with a concentration of 2 μM
Sequence (Q96NX5 whole entry, the tested form may be a part): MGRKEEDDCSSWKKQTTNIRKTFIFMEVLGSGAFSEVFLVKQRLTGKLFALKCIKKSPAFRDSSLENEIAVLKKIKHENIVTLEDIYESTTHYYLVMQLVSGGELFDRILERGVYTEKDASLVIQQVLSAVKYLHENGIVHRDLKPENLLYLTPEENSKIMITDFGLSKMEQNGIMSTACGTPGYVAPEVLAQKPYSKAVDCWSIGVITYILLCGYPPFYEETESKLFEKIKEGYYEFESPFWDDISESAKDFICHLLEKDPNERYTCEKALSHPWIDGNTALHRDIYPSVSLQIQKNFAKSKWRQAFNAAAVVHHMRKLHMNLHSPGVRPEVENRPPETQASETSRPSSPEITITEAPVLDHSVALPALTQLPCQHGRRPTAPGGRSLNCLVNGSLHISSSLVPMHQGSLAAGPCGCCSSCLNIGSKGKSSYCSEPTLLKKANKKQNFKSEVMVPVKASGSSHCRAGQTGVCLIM
Test: DSF 100 kinase selectivity screen;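 also: compound tested at 20 µM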
Format: binding
Conditions: Protein CAMK1G; average of three replicates
Is dTm at least 2 K? Then fulfilled. If not, not fulfilled.

Past entries and their recorded results:
Assess whether reported dTm for CCc1ccc(NC(=O)C2(C(=O)Nc3cccc(-c4c[nH]c5ncnc(N6CCOCC6)c45)c3)CC2)cc1 sits at 2 K or higher. not fulfilled

Could you tell me if the measured dTm of Cn1cc(-c2c[nH]c3ncnc(N4CCOCC4)c23)cc1C#N reaches 2 K or more? not fulfilled

Test whether the molecule COc1cc(NC(=O)C2(C(=O)Nc3cccc(-c4c[nH]c5ncnc(N6CCOCC6)c45)c3)CC2)ccc1F records dTm of 2 K or higher. not fulfilled

***
Please check the record CC(C)(C)c1cc(NC(=O)Nc2cccc(-c3c[nH]c4ncnc(N5CCOCC5)c34)c2)n(-c2ccc3ncccc3c2)n1 and state if its dTm is at or above 2 K. fulfilled

Assess whether reported dTm for O=C(Nc1cccc(-c2c[nH]c3ncnc(N4CCOCC4)c23)c1)C1(C(=O)Nc2ccc(F)c(Br)c2)CC1 sits at 2 K or higher. fulfilled

* * *

Here, each record is paired with measured dTm data.
Target: ~100 representative kinases (Homo sapiens, UniProt Q9H2G2)
Construct: Recombinant protein kinase domains with a concentration of 2 μM
Sequence (Q9H2G2 whole entry, the tested form may be a part): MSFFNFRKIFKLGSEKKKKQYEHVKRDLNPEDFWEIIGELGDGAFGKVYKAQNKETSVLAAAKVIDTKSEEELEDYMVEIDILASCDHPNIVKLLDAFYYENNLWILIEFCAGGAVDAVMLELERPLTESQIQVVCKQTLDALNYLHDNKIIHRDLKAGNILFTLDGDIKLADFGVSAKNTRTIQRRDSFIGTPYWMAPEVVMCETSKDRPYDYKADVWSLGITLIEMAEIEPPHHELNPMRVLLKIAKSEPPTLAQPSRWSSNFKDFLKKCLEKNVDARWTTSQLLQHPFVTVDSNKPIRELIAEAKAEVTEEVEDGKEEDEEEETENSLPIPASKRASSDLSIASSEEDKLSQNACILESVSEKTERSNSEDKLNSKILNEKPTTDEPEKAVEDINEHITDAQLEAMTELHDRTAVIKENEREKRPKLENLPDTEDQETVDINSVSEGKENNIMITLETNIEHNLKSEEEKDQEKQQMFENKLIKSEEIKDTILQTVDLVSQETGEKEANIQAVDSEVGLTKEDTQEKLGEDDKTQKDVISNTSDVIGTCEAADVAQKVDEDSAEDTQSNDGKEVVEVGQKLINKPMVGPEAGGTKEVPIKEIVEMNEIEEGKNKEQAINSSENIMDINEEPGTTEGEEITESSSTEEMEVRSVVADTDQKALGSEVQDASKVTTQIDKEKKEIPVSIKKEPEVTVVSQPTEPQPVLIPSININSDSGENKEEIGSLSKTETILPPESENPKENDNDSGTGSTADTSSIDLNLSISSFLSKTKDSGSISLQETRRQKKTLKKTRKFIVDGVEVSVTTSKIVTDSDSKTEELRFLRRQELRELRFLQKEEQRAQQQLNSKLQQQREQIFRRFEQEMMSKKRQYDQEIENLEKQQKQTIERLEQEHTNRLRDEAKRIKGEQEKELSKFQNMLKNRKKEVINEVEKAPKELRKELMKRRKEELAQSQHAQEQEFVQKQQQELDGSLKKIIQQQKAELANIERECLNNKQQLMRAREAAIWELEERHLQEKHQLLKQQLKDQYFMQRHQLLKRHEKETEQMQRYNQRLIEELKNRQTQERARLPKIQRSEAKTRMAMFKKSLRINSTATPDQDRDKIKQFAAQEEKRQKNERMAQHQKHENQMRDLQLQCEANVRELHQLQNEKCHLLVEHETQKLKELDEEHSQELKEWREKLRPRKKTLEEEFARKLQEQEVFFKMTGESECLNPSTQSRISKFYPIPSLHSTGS
Assay: DSF 100 kinase selectivity screen;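 also: compound tested at 20 µM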
Type: binding
Details: Protein SLK; DSF; average of three replicates
The reply should contain only the number, in K.

Name the reported dTm value associated with the molecule O=C(Nc1ccc(Cl)cc1)C1(C(=O)Nc2cccc(-c3c[nH]c4ncnc(N5CCOCC5)c34)c2)CC1 7.45

# query: dTm of entry COc1cc(C(=O)N2CCOCC2)c(F)cc1Nc1nc(N(C)C)c2c(Cl)c[nH]c2n1 -1.49

Which value of dTm has been reported for O=C(Nc1cccc(-c2c[nH]c3ncnc(N4CCOCC4)c23)c1)C1(C(=O)Nc2ccc(F)c(Br)c2F)CC1 in the records? 2.31

Would you kindly share the measured dTm for CCSc1nc(NC)c2c(-c3cccc(NC(=O)Nc4cc(C(C)(C)C)nn4-c4ccc(C)cc4)c3)c[nH]c2n1 ? 5.13

Endpoint output: dTm of COc1cc(S(C)(=O)=O)ccc1Nc1nc(N(C)C)c2c(Cl)c[nH]c2n1 . Value? -0.88

Please report the recorded dTm for O=C(Nc1cccc(-c2c[nH]c3ncnc(N4CCOCC4)c23)c1)C1(C(=O)Nc2cc(Br)c(F)cc2F)CC1 . 1.44

Data request, read-out dTm, for COc1cc(NC(=O)C2(C(=O)Nc3cccc(-c4c[nH]c5ncnc(N6CCOCC6)c45)c3)CC2)ccc1F 6.44

So what's the measured dTm for this one? COc1ccc(NC(=O)C2(C(=O)Nc3cccc(-c4c[nH]c5ncnc(N6CCOCC6)c45)c3)CC2)cc1 1.57

***
Item under review: COc1cc2c(Oc3ccc(NC(=O)C4(C(=O)Nc5ccc(F)cc5)CC4)cc3F)ccnc2cc1OCCCN1CCOCC1 [Foretinib, reference compound] . Reported dTm? 8.07

Field request: dTm | item: O=C(Nc1cc(F)cc(Br)c1)C1(C(=O)Nc2cccc(-c3c[nH]c4ncnc(N5CCOCC5)c34)c2)CC1 3.29

What value of measured dTm is listed for O=C(Nc1ccccc1)C1(C(=O)Nc2cccc(-c3c[nH]c4ncnc(N5CCOCC5)c34)c2)CC1 ? 5.53

Fill blank: measured dTm of the molecule O=C(Nc1cccc(-c2c[nH]c3ncnc(N4CCOCC4)c23)c1)c1cccn(-c2ccc(F)cc2)c1=O is ____. 6.46

Could you share which dTm value was measured for Cc1ccc(NC(=O)C2(C(=O)Nc3cccc(-c4c[nH]c5ncnc(N6CCOCC6)c45)c3)CC2)cc1 ? 5.25

Which measured dTm value corresponds to Cc1ccc(-n2nc(C(C)(C)C)cc2NC(=O)Nc2cccc(-c3c[nH]c4nc(Cl)nc(N5CCOCC5)c34)c2)cc1 ? 8.39

Data request, read-out dTm, for O=C(Nc1ccc(F)cc1)C1(C(=O)Nc2cccc(-c3c[nH]c4ncnc(N5CCOCC5)c34)c2)CC1 6.64
